tested on: HOP-92; test: NCI tumour cell line growth inhibition, 48 h
Calls of active or inactive are those of the source. No stated cut-off is given here; in the data, active = GI50 up to about 1.1 µM and inactive = higher.
Outcome codes: T (active), F (inactive)

In [3]: df
Out[3]:
                                   compound  group_label
0  COc1cc2ccc3c4cc(OC)c(OC(C)C)cc4cnc3c2cc1OC            F
1  O=C(O)c1ccccc1NC(c1ccccc1)c1ccc2cccnc2c1O (centres undefined)            F
2  N#CC(C#N)=C1C(=Cc2ccc(OCCCCCCCCCCSSCCCCCCCCCCOc3ccc(C=C4C(=C(C#N)C#N)c5ccccc5C4=C(C#N)C#N)cc3)cc2)C(=C(C#N)C#N)c2ccccc21            F
3  C[C@H]1C/C=C/[C@H]2[C@@H]3O[C@]3(C)[C@@H](C)[C@H]3[C@H](Cc4ccccc4)NC(=O)[C@]32OC(=O)O/C=C/[C@@](C)(O)C1=O            T
4  CSc1ncc2c(n1)C(C#N)C1Sc3ccccc3N1C2=O (centres undefined)            F
5  CCOc1ccc(NC(=O)CC2SC(Nc3ccc(C)cc3C)=NC2=O)cc1 (centres undefined)            F
6  C/C(=N/NC(=S)N(Cc1ccccn1)Cc1ccccn1)c1cnccn1            F
7  CCC(=O)C(c1ccccc1)c1ccccn1 (centres undefined)            F
8      Cc1nc(C)c(N2CCN(Cc3ccccc3)CC2)c(O)n1            F

====

tested on: BT-549; test: NCI tumour cell line growth inhibition, 48 h
Active and inactive are the calls of the source. No stated cut-off is given here; in the data, active = GI50 up to about 1.1 µM and inactive = higher.

COMPOUND	EXPERIMENTAL_TARGET	GI50
COc1ccc2cc(C(C)C(O)c3cc(F)c(F)c(F)c3F)ccc2c1 (stereo not given)	BT-549	> 100 µM (inactive)
Cc1cc(Br)cc(C)c1NC(=O)C(=O)Nn1c(S)nc2ccccc2c1=O	BT-549	> 100 µM (inactive)
CCC(=O)C(c1ccccc1)c1ccccn1 (stereo not given)	BT-549	> 100 µM (inactive)
C=C=C(C)C(=O)N(C(C)C)C(C)C	BT-549	> 100 µM (inactive)
O=C(NCCCl)N(O)C(=O)Nc1ccccc1	BT-549	> 100 µM (inactive)
C[C@H]1CC[C@@H]2[C@@H](C)[C@H]3[C@H](C[C@H]4[C@@H]5CC=C6C[C@@H](O)CC[C@]6(C)[C@H]5C[C@H](O)[C@]34C)N2C1	BT-549	> 100 µM (inactive)
BrC1=C(Br)C2(SCCS2)[C@H]2C[C@@H]1c1ccccc12	BT-549	38.4 µM (inactive)
CCOc1ccc2nc3nc(O)nc(C)c3c(NC(C)(CO)CO)c2c1	BT-549	> 100 µM (inactive)
CN(C)CCNC(=O)c1c(O)ccc2c1c1c(n2CCc2ccccc2)C(=O)c2ccccc2C1=O	BT-549	16.1 µM (inactive)
CN1CCN(Cc2nc3c(s2)CCc2sccc2-3)CC1	BT-549	> 100 µM (inactive)
CSc1ncc2c(n1)C(C#N)C1Sc3ccccc3N1C2=O (stereo not given)	BT-549	> 100 µM (inactive)
O=C1/C(=C/c2ccc(O)c(O)c2)CCC/C1=C\c1ccc(O)c(O)c1	BT-549	4.74 µM (inactive)
COc1ccccc1Cn1c2c(c3c(C(=O)NCCN(C)C)c(O)ccc31)C(=O)c1ccccc1C2=O	BT-549	7.13 µM (inactive)
O=C(NCCC1([N+](=O)[O-])CCN(C(=O)c2ccccc2)CC1)c1ccccc1	BT-549	> 100 µM (inactive)
Cc1cc(NC2=CC(=O)C(=O)c3ccccc32)no1	BT-549	5.53 µM (inactive)
N#Cc1c2ccc([N+](=O)[O-])cc2c(=O)n2c1[nH]c1ccc(C(F)(F)F)cc12	BT-549	25.2 µM (inactive)
CC1(C)CC(=O)C2=C(C1)C(c1ccccc1Cl)C1C(=O)CC(C)(C)CC1(O)O2 (stereo not given)	BT-549	> 100 µM (inactive)
OC1(c2ccc(Cl)cc2)C(N2CCCC2)c2ccccc2C2=NCCN21 (stereo not given)	BT-549	27 µM (inactive)
COc1ccc(/C=C/c2cc(OC)c(OC)c(OC)c2)cc1O	BT-549	8.95 µM (inactive)
COc1ccc2c(c1)CC1C3(CCCCC23)CC[N+]1(C)C (stereo not given)	BT-549	24.9 µM (inactive)
CCC[C@H](N[S+]([O-])c1ccc(C)cc1)C(C(=O)OCC)=C(c1ccccc1)c1ccccc1 (stereo not given in full)	BT-549	21.2 µM (inactive)
C(=N/c1ccccc1C1SCCCS1)/c1ccccc1	BT-549	> 100 µM (inactive)
CC1=CCC(C(C)(C)NC(=O)c2ccccc2)C/C1=N/O (stereo not given)	BT-549	> 100 µM (inactive)
c1cncc(-c2cc(-c3cc(-c4cccnc4)[nH]n3)n[nH]2)c1	BT-549	> 100 µM (inactive)
[O-][S+](Nc1ccccc1)c1ccc(N2CCOCC2)cc1 (stereo not given)	BT-549	6.82 µM (inactive)
CO[C@@]12C[C@H](CNC(=O)c3ccc[nH]3)O[C@@H]1NC(=O)N2	BT-549	> 100 µM (inactive)
O=C1NC2(CCN(CCc3ccccc3)CC2)Oc2ccccc21	BT-549	39 µM (inactive)
CC1(C)OCC(/C=C\C(O)CC2(C)OCCO2)CO1 (stereo not given)	BT-549	> 100 µM (inactive)
CCCNC(=O)CCC(C)C1CCC2C3C(C[C@H](OC(C)=O)[C@]12C)[C@@]1(C)CCC2(C[C@H]1C[C@H]3OC(C)=O)OOC1(CC[C@]3(C)C4C[C@H](OC(C)=O)[C@]5(C)C(C(C)CCC(=O)NCCC)CCC5C4[C@H](OC(C)=O)C[C@@H]3C1)OO2 (stereo not given in full)	BT-549	> 100 µM (inactive)
CCCCCCCCCCCCCCCCCCNC(=S)N/C=C1\C(=O)Nc2ccccc2C1=O	BT-549	18.9 µM (inactive)
CN1c2ccc(Cl)cc2C(=O)NC1c1ccc([N+](=O)[O-])s1 (stereo not given)	BT-549	14.1 µM (inactive)
O=C1CN(c2ccc(Cl)cc2)C(=O)CN1CCN1CC(=O)N(c2ccc(Cl)cc2)CC1=O	BT-549	> 100 µM (inactive)
O=[N+]([O-])c1ccc(C2c3c(O)nc(O)nc3Oc3nc(O)nc(O)c32)cc1	BT-549	> 100 µM (inactive)
CCOC(=O)C1(C(=O)OCC)CCCN1C(=O)[C@H](CNC(=O)OC(C)(C)C)NC(=O)OCc1ccccc1	BT-549	> 100 µM (inactive)
O=C(O)C1CCCN(CCc2c[nH]c3ccccc23)C1 (stereo not given)	BT-549	> 100 µM (inactive)
COc1ccccc1/C=C/c1nc2ccccc2o1	BT-549	> 10 µM (inactive)
Nc1c2c(nc3ccccc13)-c1ccccc1CC2	BT-549	13.2 µM (inactive)
COc1cccc(C2c3cc4c(cc3OC(NNc3ccccc3)C2C)OCO4)c1O (stereo not given)	BT-549	7.18 µM (inactive)
CC1=CC(=O)/C(=C/Nc2nc(-c3cccc([N+](=O)[O-])c3)cs2)C(=O)O1	BT-549	21.9 µM (inactive)
Cc1cnc2nc(-c3sccc3C)cc(O)c2c1	BT-549	9.42 µM (inactive)
